# assay.target: NRAS Q61R (Homo sapiens (Human), UniProt P01111+P62937, Q61R)
# Sequence (P01111 whole entry Q61R): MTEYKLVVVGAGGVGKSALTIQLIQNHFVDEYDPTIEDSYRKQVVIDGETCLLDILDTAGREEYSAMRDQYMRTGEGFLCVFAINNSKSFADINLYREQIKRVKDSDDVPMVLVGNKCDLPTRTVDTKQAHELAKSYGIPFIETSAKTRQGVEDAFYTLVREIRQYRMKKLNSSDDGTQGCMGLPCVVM
# Sequence (P62937 whole entry): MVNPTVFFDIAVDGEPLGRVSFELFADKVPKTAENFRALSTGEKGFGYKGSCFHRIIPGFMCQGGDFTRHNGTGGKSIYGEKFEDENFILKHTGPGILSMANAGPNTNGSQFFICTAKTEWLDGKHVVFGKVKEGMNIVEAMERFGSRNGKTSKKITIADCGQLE
# assay.text: Ras-Raf (BRAF RBD) disruption / FRET / MOA assay, NRAS Q61R
# Assay type: biochemical
# test.conditions: NRAS Q61R; Ras-Raf disruption/FRET/MOA assay; read-out: IC50* NRAS Q61R FRET data
quantity: IC50

[[record]]
molecule = "C=CC(=O)N1CC[C@@H]2[C@H]1CN2C(=O)N(C)[C@H](C(=O)N[C@H]1Cc2nc(cs2)-c2ccc3c(c2)c(c(-c2cccnc2[C@H](C)OC)n3CC)CC(C)(C)COC(=O)[C@@H]2CCCN(N2)C1=O)C(C)C (atropisomer, axis not shown)"
val = "100 to 1000 nM"

[[record]]
molecule = "C=CC(=O)N1CC[C@H](C(=O)N(C)[C@H](C(=O)N[C@H]2Cc3cccc(c3)-c3ccc4c(c3)c(c(-c3cnn(C5CCN(C)CC5)c3[C@H](C)OC)n4CC)CC(C)(C)COC(=O)[C@@H]3CCCN(N3)C2=O)C(C)C)C1"
val = "> 10000 nM"

[[record]]
molecule = "C=CC(=O)N(C)C(=O)N(C)[C@H](C(=O)N[C@H]1Cc2nc(cs2)-c2ccc3c(c2)c(c(-c2cccnc2[C@H](C)OC)n3CC)CC(C)(C)COC(=O)[C@@H]2CCCN(N2)C1=O)C(C)C (atropisomer, axis not shown)"
val = "> 10000 nM"

[[record]]
molecule = "C=CC(=O)N1CCO[C@H]2CN(C(=O)N(C)[C@H](C(=O)N[C@H]3Cc4cccc(c4)-c4ccc5c(c4)c(c(-c4cccnc4[C@H](C)OC)n5CC)CC(C)(C)COC(=O)[C@@H]4CCCN(N4)C3=O)C(C)C)C[C@H]21 (atropisomer, axis not shown)"
val = "100 to 1000 nM"

[[record]]
molecule = "CCn1c(-c2cccnc2[C@H](C)OC)c2c3cc(ccc31)-c1cccc(c1)C[C@H](NC(=O)[C@@H](COC1CN(C(=O)C#CC(C)(C)N(C)C(C)C)C1)C(C)C)C(=O)N1CCC[C@H](N1)C(=O)OCC(C)(C)C2 (atropisomer, axis not shown)"
val = "> 10000 nM"

[[record]]
molecule = "C=CC(=O)N1CC[C@H](C(=O)N(C)[C@H](C(=O)N[C@H]2Cc3cccc(c3)-c3ccc4c(c3)c(c(-c3cccnc3[C@H](C)OC)n4CC#CC)CC(C)(C)COC(=O)[C@@H]3CCCN(N3)C2=O)C(C)C)C1 (atropisomer, axis not shown)"
val = "1000 to 10000 nM"

[[record]]
molecule = "CCn1c(-c2cccnc2[C@H](C)OC)c2c3cc(ccc31)-c1cccc(c1)C[C@H](NC(=O)[C@@H](COC1CN(C(=O)C#C[C@H]3COCCN3C)C1)C(C)C)C(=O)N1CCC[C@H](N1)C(=O)OCC(C)(C)C2 (atropisomer, axis not shown)"
val = "> 10000 nM"

[[record]]
molecule = "C=CC(=O)C1CC[C@H](C(=O)N(C)[C@H](C(=O)N[C@H]2Cc3cc(O)cc(c3)-c3ccc4c(c3)c(c(-c3cnn(C)c3[C@H](C)OC)n4CC)CC(C)(C)COC(=O)[C@@H]3CCCN(N3)C2=O)C(C)C)C1 (stereo partly drawn)"
val = "1000 to 10000 nM"

[[record]]
molecule = "CCn1c(-c2cccnc2[C@H](C)OC)c2c3cc(ccc31)-c1csc(n1)C[C@H](NC(=O)[C@H](C(C)C)N(C)C(=O)N1CCN(C(=O)/C=C/CN(C)C)C3(CC3)C1)C(=O)N1CCC[C@H](N1)C(=O)OCC(C)(C)C2 (atropisomer, axis not shown)"
val = "100 to 1000 nM"

[[record]]
molecule = "C=CC(=O)N1C[C@H](C)N(C(=O)N(C)[C@H](C(=O)N[C@H]2Cc3nc(cs3)-c3ccc4c(c3)c(c(-c3cccnc3[C@H](C)OC)n4CC)CC(C)(C)COC(=O)[C@@H]3CCCN(N3)C2=O)C(C)C)C[C@@H]1C (atropisomer, axis not shown)"
val = "10 to 100 nM"

[[record]]
molecule = "CO[C@@H](C)c1ncccc1-c1c2c3cc(ccc3n1CC(F)(F)F)-c1csc(n1)C[C@H](NC(=O)[C@H](C(C)C)N(C)C(=O)N1CCC3(CC1)CN(C(=O)/C=C/CF)C3)C(=O)N1CCC[C@H](N1)C(=O)OCC(C)(C)C2 (atropisomer, axis not shown)"
val = "10 to 100 nM"

[[record]]
molecule = "C=CC(=O)N1CCC12CN(C(=O)N(C)[C@H](C(=O)N[C@H]1Cc3nc(cs3)-c3ccc4c(c3)c(c(-c3cccnc3[C@H](C)OC)n4CC)CC(C)(C)COC(=O)[C@@H]3CCCN(N3)C1=O)C(C)C)C2 (atropisomer, axis not shown)"
val = "100 to 1000 nM"

[[record]]
molecule = "C=CC(=O)N1CCN(C(=O)N(C)[C@H](C(=O)N[C@H]2Cc3nc(cs3)-c3ccc4c(c3)c(c(-c3cccnc3[C@H](C)OC)n4CC)CC(C)(C)COC(=O)[C@@H]3CCCN(N3)C2=O)C(C)C)CC12CC2 (atropisomer, axis not shown)"
val = "10 to 100 nM"

[[record]]
molecule = "CO[C@@H](C)c1ncccc1-c1c2c3cc(ccc3n1CC(F)(F)F)-c1cccc(c1)C[C@H](NC(=O)[C@@H](COC1CN(C(=O)C#CC(C)(C)N(C)C)C1)C(C)C)C(=O)N1CCC[C@H](N1)C(=O)OCC(C)(C)C2 (atropisomer, axis not shown)"
val = "> 10000 nM"

[[record]]
molecule = "CCn1c(-c2cccnc2[C@H](C)OC)c2c3cc(ccc31)-c1csc(n1)C[C@H](NC(=O)[C@H](C(C)C)N(C)C(=O)N(C)C1CN(C(=O)/C=C/CN(C)C)C1)C(=O)N1CCC[C@H](N1)C(=O)OCC(C)(C)C2 (atropisomer, axis not shown)"
val = "100 to 1000 nM"

